What pEC50 was measured for each of the following?
- target-of-assay: human muscarinic M2 receptor (Homo sapiens, UniProt P08172)
- Sequence (P08172 1-466): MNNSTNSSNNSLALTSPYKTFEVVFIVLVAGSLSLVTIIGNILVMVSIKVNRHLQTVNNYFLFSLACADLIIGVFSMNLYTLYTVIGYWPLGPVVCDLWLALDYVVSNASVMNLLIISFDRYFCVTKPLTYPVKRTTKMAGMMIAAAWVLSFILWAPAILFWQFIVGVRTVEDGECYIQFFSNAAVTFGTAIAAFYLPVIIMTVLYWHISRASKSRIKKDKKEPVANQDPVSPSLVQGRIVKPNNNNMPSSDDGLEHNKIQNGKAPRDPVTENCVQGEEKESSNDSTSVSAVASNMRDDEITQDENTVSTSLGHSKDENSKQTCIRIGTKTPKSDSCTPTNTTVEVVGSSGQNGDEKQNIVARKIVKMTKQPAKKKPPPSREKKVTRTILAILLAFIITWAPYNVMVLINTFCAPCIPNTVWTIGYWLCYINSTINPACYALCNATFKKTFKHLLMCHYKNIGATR
- method-notes: Alphascreen Surefire phospho-ERK1/2 functional assay, M2
- measurement-conditions: pEC50 M2, CHO cells stably expressing human M2; phospho-ERK1/2
pEC50: −log10 of the molar value.

State the recorded pEC50 for this entry: CCOC(=O)N1CCC2(CC(N3CCC4(CC3)OC(=O)N(CC3CC3)C4(C)C)C2)C1 (single isomer, unassigned) [4-39 Isomer 2]
< 4.70

State the recorded pEC50 for this entry: CCOC(=O)N1CCC2(CC(N3CCC4(CC3)OC(=O)N(CC(F)(F)F)C4(C)C)C2)C1 (single isomer, unassigned) [4-43 Isomer 2]
< 4.70

State the recorded pEC50 for this entry: CCOC(=O)N1CCC2(CC(N3CCC4(CC3)CC(=O)NN4CC)C2)C1 (single isomer, unassigned) [6-2 Isomer 2]
< 4.70

State the recorded pEC50 for this entry: CCOC(=O)N1CCC2(CC(N3CCC4(CC3)CC(=O)NC4CC)C2)C1 (single isomer, unassigned) [3-5 Isomer 2]
< 4.70

State the recorded pEC50 for this entry: CCOC(=O)N1CCC2(CC(N3CCC4(CC3)CNC(=O)N4)C2)C1 (single isomer, unassigned) [5-2 Isomer 2]
< 4.70

State the recorded pEC50 for this entry: [2H]C([2H])([2H])OC(=O)N1CCC2(CC(N3CCC4(CC3)CNC(=O)O4)C2)C1 (single isomer, unassigned) [4-2 Isomer 2]
< 4.70

---

- target-of-assay: UniProt P08172
- method-notes: Alphascreen Surefire phospho-ERK1/2 functional assay, M2
- measurement-conditions: CHO cells stably expressing human M2; Emax relative to ACh
endpoint-name: M2 % Emax cf. ACh

INSERT INTO measurements (molecule, data_value) VALUES
  ('CCCN1C(=O)OC2(CCN(C3CC4(CCN(C(=O)OCC)C4)C3)CC2)C1CC (single isomer, unassigned) [4-23 Isomer 4]', '(8) %'),
  ('CCOC(=O)N1CCC2(CC(N3CCC4(CC3)OC(=O)N(CC(C)C)C4(C)C)C2)C1 (single isomer, unassigned) [4-38 Isomer 2]', '(3) %'),
  ('CCOC(=O)N1CCC2(CC(N3CCC4(CC3)OC(=O)N(CC(C)C)C4(C)C)C2)C1 (single isomer, unassigned) [4-38 Isomer 1]', '(7) %'),
  ('CCOC(=O)N1CCC2(CC(N3CCC4(CC3)OC(=O)N(CC)C4CC)C2)C1 (single isomer, unassigned) [4-22 Isomer 3]', '(3) %');
